# System: soybean (Glycine max Merr.), GLXMA
# ASSAY TEXT: Test Example 2: post-emergence (foliage treatment) herbicidal activity (growth controlling degree)
# Assay type: in vivo
# CONDITION SET: Glycine max, 504 h, 31 g a.i./ha, 0.2-0.3 leaf stage
MEASURED QUANTITY: pest or weed control at 31 g/ha

In the examples that follow, each entry is paired with its recorded pest or weed control at 31 g/ha.
1. Cn1nc(-c2c(F)cc(Cl)c3c2CCC(C)(C)O3)c(Cl)c1OC(F)F [Compound 1-40]; 60%
2. CC1CCc2c(c(Cl)cc(F)c2-c2nn(C)c(OC(F)F)c2Cl)O1 (stereo not shown) [Compound 1-39]; 100%
3. Fc1cc(Cl)c2c(c1-c1nn3c(c1Cl)CCCC3)CCCO2 [Compound 1-79]; 70%

Turning to the following molecule.
(Q) Name the reported pest or weed control at 31 g/ha value associated with the molecule CC1CCc2c(c(Cl)cc(F)c2-c2nn(C)c(C(F)(F)F)c2Cl)O1 (stereo not shown) [Compound 1-8]
(A) 40%
